# test-target: Acetylcholinesterase (Homo sapiens) (UniProt P22303)
# Sequence (P22303 whole entry, looked up): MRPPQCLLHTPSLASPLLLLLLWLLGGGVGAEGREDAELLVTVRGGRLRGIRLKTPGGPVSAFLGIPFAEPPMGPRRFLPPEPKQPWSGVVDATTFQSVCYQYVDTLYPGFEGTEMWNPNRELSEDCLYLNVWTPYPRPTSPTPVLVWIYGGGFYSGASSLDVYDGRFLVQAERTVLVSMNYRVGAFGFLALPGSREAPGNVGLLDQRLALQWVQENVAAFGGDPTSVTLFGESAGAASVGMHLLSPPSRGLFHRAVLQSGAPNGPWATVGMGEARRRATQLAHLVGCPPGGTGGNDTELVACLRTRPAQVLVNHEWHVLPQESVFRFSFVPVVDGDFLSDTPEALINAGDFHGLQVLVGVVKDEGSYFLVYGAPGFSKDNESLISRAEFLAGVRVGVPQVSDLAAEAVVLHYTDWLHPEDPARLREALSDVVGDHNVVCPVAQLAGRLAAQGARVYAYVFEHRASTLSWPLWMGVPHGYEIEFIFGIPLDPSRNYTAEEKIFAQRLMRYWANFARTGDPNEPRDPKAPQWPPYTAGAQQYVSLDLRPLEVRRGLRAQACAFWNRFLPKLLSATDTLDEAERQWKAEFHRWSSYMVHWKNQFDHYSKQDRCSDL
# assay-info: Acetylcholinesterase (AChE) small molecule antagonists: fluorescence cell-based qHTS assay (AID 1347398); note: nearly all actives have a fitted effect of over 50% in size
# condition-label: SH-SY5Y cells; AChE activity; series mostly up to 115 µM
Records with an inconclusive call do not appear. Calls of active or inactive are those of the source. Calls come from the whole dose curve.
Entry note: the call must match one of y for active, n for inactive

Example entries begin here.
>>> print(df.to_string())
                                   molecule  classification
0                         O=C(O)CCSCCC(=O)O               n
1                              CCOC(OCC)OCC               n
2        COc1cc(-c2ccc(=O)[nH]n2)ccc1OC(F)F               n
3  CCCCC(CC)CN=C(N)NC(N)=NCCCCCCN=C(N)NC(N)=NCC(CC)CCCC (stereo not drawn)               y
4  Nc1ccn([C@@H]2O[C@H](CO)[C@@H](O)C2O)c(=O)n1 (stereo partly drawn)               n
5                       CCCCCCCCCCCc1ccccc1               n

# ---- query molecule ----
**Query** Field: outcome | Entry: O=C1CCCCCN1SSN1CCCCCC1=O
**Result** n
